Provenance of the data: patent EP4043466B1

This listing pairs compounds with measured pIC50.
- assayed.system: purified human, His-tagged PRC2 complex (Homo sapiens, UniProt O75530+Q15910)
- Sequence (Q15910 whole entry): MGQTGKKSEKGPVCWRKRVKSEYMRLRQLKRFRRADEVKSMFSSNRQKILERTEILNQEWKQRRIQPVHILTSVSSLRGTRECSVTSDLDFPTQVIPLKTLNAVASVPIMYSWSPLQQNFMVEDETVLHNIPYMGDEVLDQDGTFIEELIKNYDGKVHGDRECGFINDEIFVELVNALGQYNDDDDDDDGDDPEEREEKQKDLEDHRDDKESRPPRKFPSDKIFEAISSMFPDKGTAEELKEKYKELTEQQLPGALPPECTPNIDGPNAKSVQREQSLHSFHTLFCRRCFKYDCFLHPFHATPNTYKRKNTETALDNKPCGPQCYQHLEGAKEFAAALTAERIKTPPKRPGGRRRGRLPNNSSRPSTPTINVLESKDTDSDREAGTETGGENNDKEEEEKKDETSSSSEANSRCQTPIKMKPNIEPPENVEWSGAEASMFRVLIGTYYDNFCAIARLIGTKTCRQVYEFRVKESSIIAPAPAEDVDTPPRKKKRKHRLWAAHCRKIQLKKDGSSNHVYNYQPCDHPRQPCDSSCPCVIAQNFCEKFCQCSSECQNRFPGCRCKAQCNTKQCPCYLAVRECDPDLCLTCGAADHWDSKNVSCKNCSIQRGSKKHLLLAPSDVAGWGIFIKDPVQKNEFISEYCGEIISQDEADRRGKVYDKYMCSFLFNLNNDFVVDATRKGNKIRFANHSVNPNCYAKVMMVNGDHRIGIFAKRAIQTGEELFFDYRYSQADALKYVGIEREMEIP
- Sequence (O75530 whole entry): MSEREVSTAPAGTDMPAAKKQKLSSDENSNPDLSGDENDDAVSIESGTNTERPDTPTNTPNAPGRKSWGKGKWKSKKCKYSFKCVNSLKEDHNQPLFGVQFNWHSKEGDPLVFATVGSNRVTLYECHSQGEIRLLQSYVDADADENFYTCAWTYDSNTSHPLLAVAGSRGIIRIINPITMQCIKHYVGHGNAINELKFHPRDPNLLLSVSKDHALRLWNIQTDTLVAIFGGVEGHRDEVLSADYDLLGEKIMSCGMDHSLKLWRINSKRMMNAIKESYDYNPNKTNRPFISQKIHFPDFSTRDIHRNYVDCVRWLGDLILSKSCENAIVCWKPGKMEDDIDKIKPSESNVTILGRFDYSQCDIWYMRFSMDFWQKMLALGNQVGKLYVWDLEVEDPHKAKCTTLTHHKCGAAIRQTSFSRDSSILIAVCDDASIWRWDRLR
- Sequence (Q15022 whole entry partner): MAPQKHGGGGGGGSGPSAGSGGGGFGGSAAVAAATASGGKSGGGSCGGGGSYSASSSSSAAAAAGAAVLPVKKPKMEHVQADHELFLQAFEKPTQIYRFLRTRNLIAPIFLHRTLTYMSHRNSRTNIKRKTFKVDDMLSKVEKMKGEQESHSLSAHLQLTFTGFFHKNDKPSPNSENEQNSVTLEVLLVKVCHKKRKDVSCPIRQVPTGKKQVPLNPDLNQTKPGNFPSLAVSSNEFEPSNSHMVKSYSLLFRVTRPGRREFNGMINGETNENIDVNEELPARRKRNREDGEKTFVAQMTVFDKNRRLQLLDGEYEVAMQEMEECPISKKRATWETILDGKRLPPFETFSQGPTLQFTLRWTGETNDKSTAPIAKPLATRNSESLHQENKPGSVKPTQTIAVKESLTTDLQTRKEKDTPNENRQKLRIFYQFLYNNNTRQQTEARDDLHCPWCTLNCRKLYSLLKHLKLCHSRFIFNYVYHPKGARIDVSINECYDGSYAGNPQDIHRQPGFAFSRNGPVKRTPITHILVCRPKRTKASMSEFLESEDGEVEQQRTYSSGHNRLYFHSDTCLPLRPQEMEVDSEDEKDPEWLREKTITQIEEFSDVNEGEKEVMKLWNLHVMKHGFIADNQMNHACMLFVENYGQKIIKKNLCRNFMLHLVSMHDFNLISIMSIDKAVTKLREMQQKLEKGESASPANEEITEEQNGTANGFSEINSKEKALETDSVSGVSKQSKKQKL
- Sequence (Q6ZN18 whole entry partner): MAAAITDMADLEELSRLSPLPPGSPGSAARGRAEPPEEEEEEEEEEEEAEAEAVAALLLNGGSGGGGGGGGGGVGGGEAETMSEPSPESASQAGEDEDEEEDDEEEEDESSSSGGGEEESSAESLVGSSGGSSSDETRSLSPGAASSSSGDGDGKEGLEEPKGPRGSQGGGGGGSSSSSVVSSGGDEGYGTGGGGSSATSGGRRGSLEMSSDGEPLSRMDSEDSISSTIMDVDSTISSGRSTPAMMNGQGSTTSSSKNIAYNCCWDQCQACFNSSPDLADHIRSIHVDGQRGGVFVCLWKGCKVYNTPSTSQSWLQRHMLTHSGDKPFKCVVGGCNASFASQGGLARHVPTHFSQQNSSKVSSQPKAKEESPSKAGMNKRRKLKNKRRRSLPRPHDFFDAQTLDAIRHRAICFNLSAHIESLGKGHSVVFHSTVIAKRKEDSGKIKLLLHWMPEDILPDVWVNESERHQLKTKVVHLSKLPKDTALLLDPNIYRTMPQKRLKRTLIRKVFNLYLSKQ
- Sequence (Q09028 whole entry partner): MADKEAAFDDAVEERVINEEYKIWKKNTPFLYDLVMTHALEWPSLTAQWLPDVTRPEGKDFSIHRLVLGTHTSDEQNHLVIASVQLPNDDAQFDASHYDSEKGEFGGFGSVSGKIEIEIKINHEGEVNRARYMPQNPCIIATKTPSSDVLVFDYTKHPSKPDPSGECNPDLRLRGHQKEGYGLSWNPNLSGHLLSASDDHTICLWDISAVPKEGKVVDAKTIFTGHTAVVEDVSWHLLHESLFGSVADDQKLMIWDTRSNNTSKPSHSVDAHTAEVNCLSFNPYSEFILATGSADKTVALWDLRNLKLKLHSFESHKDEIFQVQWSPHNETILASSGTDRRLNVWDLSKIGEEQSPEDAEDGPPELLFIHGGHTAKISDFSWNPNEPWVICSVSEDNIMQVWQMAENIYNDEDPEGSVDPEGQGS
- experiment: Hot Spot HMT assay: inhibition of PRC2 enzymatic activity (transfer of tritiated methyl from SAM to core histone, filter binding)
- Assay type: biochemical
- assay.conditions: Inhibition of PRC2-mediated enzymatic activity; 10 nM PRC2 complex, 0.05 mg/ml core histone H3, 1 uM 3H-SAM, 1 hr at 30°C
pIC50: −log10 of the molar value.

Worked cases, pIC50 given:
{"columns": ["compound", "measured.result"],
 "data": [
  ["CN(C)Cc1ccc(-c2cnc(NCc3c(F)ccc4c3CCO4)n3cc(C#N)nc23)c(Cl)c1F", "> 7.00"],
  ["N#Cc1cn2c(NCc3c(F)ccc4c3CCO4)ncc(-c3ccncn3)c2n1", "> 7.00"],
  ["N#Cc1cn2c(NCc3c(F)ccc4c3CCO4)ncc(-c3ccc(CN4CCOCC4)cc3)c2n1", "> 7.00"],
  ["N#Cc1cn2c(NCc3c(F)ccc4c3CCO4)ncc(-c3cnccc3Cl)c2n1", "> 7.00"],
  ["CN(C)C(=O)c1cc(F)c(-c2cnc(NCc3c(F)ccc4c3CCO4)n3cc(C#N)nc23)cc1F", "> 7.00"],
  ["N#Cc1cn2c(NCc3c(F)ccc4c3CCO4)ncc(-c3ccc4c(c3)CCNC4)c2n1", "6.30 to 7.00"],
  ["N#Cc1cn2c(NCc3c(F)ccc4c3CCO4)ncc(-c3ccc(S(N)(=O)=O)cc3)c2n1", "> 7.00"],
  ["Cc1c(-c2cnc(NCc3c(F)ccc4c3CCO4)n3cc(C(=O)O)nc23)cnn1C(C)C", "> 7.00"]
]}

Problem: Send back purified human, His-tagged PRC2 complex (Homo sapiens, UniProt O75530+Q15910) pIC50 of COc1cc(-c2cnc(NCc3c(F)ccc4c3CCO4)n3cc(C#N)nc23)ccn1 only.
Result: > 7.00

Problem: Return reported pIC50 for target or system purified human, His-tagged PRC2 complex (Homo sapiens, UniProt O75530+Q15910), item Cc1nn(C)cc1-c1cnc(NCc2c(F)ccc3c2CCO3)n2cc(C#N)nc12 .
Result: > 7.00

Problem: Please tell me the measured pIC50 for CN1CCN(C(=O)c2cc(-c3cnc(NCc4c(F)ccc5c4CCO5)n4cc(C#N)nc34)n(C)n2)CC1 ; system: purified human, His-tagged PRC2 complex (Homo sapiens, UniProt O75530+Q15910).
Result: > 7.00

Problem: State, for purified human, His-tagged PRC2 complex (Homo sapiens, UniProt O75530+Q15910), measured pIC50 of the compound listed here: COCCn1cc(-c2cnc(NCc3c(F)ccc4c3CCO4)n3cc(C#N)nc23)cn1
Result: 6.30 to 7.00

Problem: Under purified human, His-tagged PRC2 complex (Homo sapiens, UniProt O75530+Q15910), report pIC50 for N#Cc1cn2c(NCc3c(F)ccc4c3CCO4)ncc(-c3ccc(CN4CCC(F)(F)C4)cc3)c2n1
Result: > 7.00

Problem: Report pIC50 under test system purified human, His-tagged PRC2 complex (Homo sapiens, UniProt O75530+Q15910) for Cc1nc(N2CCN(C)CC2)ccc1-c1cnc(NCc2c(F)ccc3c2CCO3)n2cc(C(N)=O)nc12 .
Result: > 7.00
